- METHOD: Cytotoxicity against LPS-stimulated mouse BV2 cells assessed as cell viability at 20 uM incubated for 4 hrs followed by LPS stimulation for 24 hrs by MTT assay
- Type: toxicity, BV-2
- EXPERIMENTAL CONDITIONS: read-out: Activity
MEASURED METRIC: viability at 24 h, 20 µM (%)
Unit % implied. Number only.

Query: Which viability at 24 h, 20 µM value belongs to `CNC(=N)NCCC[C@H](N)C(=O)O` ?
Response: 98.5

Query: Now try `C[C@@H]1O[C@@H](Oc2c(-c3ccc(O)c(O)c3)oc3cc(O)cc(O)c3c2=O)[C@H](O[C@@H]2O[C@H](COC(=O)[C@H]3[C@H](C(=O)OC[C@H]4O[C@@H](O[C@H]5[C@H](Oc6c(-c7ccc(O)c(O)c7)oc7cc(O)cc(O)c7c6=O)O[C@@H](C)[C@H](O)[C@H]5O)[C@H](O)[C@@H](O)[C@@H]4O)[C@@H](c4ccc(O)cc4)[C@@H]3c3ccc(O)cc3)[C@@H](O)[C@H](O)[C@H]2O)[C@H](O)[C@H]1O` .
Response: 99

Query: Now try `C[C@@H]1O[C@@H](Oc2c(-c3ccc(O)cc3)oc3cc(O)cc(O)c3c2=O)[C@H](O[C@@H]2O[C@H](COC(=O)[C@H]3[C@H](c4ccc(O)cc4)[C@@H](C(=O)OC[C@H]4O[C@@H](O[C@H]5[C@H](Oc6c(-c7ccc(O)cc7)oc7cc(O)cc(O)c7c6=O)O[C@@H](C)[C@H](O)[C@H]5O)[C@H](O)[C@@H](O)[C@@H]4O)[C@@H]3c3ccc(O)cc3)[C@@H](O)[C@H](O)[C@H]2O)[C@H](O)[C@H]1O` .
Response: 97.7

----------
- METHOD: Antineuroinflammatory activity in mouse BV2 cells assessed as inhibition of LPS-induced NO production incubated for 4 hrs followed by LPS stimulation for 24 hrs by Griess assay
- Type: functional, cell-based
- EXPERIMENTAL CONDITIONS: BV-2
pIC50: −log10 of the molar value.
Exercise: for every item that follows, state its recorded pIC50.

Query: Which pIC50 value belongs to `C[C@@H]1O[C@@H](Oc2c(-c3ccc(O)c(O)c3)oc3cc(O)cc(O)c3c2=O)[C@H](O[C@@H]2O[C@H](COC(=O)[C@H]3[C@H](c4ccc(O)cc4)[C@@H](C(=O)OC[C@H]4O[C@@H](O[C@H]5[C@H](Oc6c(-c7ccc(O)c(O)c7)oc7cc(O)cc(O)c7c6=O)O[C@@H](C)[C@H](O)[C@H]5O)[C@H](O)[C@@H](O)[C@@H]4O)[C@@H]3c3ccc(O)cc3)[C@@H](O)[C@H](O)[C@H]2O)[C@H](O)[C@H]1O` ?
Response: < 4.00

Query: Now try `C[C@@H]1O[C@@H](Oc2c(-c3ccc(O)cc3)oc3cc(O)cc(O)c3c2=O)[C@H](O[C@@H]2O[C@H](COC(=O)[C@@H]3[C@H](C(=O)OC[C@H]4O[C@@H](O[C@H]5[C@H](Oc6c(-c7ccc(O)cc7)oc7cc(O)cc(O)c7c6=O)O[C@@H](C)[C@H](O)[C@H]5O)[C@H](O)[C@@H](O)[C@@H]4O)[C@@H](c4ccc(O)cc4)[C@@H]3c3ccc(O)cc3)[C@@H](O)[C@H](O)[C@H]2O)[C@H](O)[C@H]1O` .
Response: < 4.00

Query: Now try `C[C@@H]1O[C@@H](Oc2c(-c3ccc(O)cc3)oc3cc(O)cc(O)c3c2=O)[C@H](O[C@@H]2O[C@H](COC(=O)[C@@H]3[C@@H](C(=O)OC[C@H]4O[C@@H](O[C@H]5[C@H](Oc6c(-c7ccc(O)cc7)oc7cc(O)cc(O)c7c6=O)O[C@@H](C)[C@H](O)[C@H]5O)[C@H](O)[C@@H](O)[C@@H]4O)[C@@H](c4ccc(O)cc4)[C@@H]3c3ccc(O)cc3)[C@@H](O)[C@H](O)[C@H]2O)[C@H](O)[C@H]1O` .
Response: < 4.00
